- Tested on: NCI-H226 lung
- method.summary: NCI tumour cell line growth inhibition, 48 h
Parameter GI50: see the listing below.

Known GI50 results, listed for orientation:
1. COc1cc(C2C3=C(COC3=O)N(CCO)c3cc4c(cc32)CCC4)cc(OC)c1OC (stereo not given); 417 nM
2. CCOC(=O)c1ccccc1NC(c1ccccc1)c1ccc2cccnc2c1O (stereo not given); 2690 nM
3. COc1ccc(C(=O)CC(Cl)=C(Cl)Cl)cc1; 34100 nM

Q: What does the data say about its GI50? Entry: CC1SC(c2cccc(Oc3ccccc3)c2)N(CCc2cccs2)C1=O (stereo not given)
Result: 1280 nM

Q: What does the data say about its GI50? Entry: COc1cc2c(cc1Nc1nc(Nc3ccsc3C(N)=O)c3cc[nH]c3n1)N(C(=O)CN(C)C)CCC2
Result: 1120 nM
